# Test system: panel of tumor cell lines
# test-details: In vitro cytotoxicity, tetrazolium-based colorimetric assay
# details: read-out: median cytotoxic concentration (IC50 values); 21 cell lines tested; 72 h incubation; FIG. 1
pIC50: −log10 of the molar value.
reported-metric: pIC50

Query string: So what does the record say about pIC50 for C/C(=C\c1csc(C)n1)[C@@H]1CC2O[C@]2(C)CCC[C@H](C)[C@H](O)[C@@H](C)C(=O)C(C)(C)[C@@H](O)CC(=O)N1 (relative stereo) ?
Result string: 7.46 to 8.85
